The reported numbers originate from patent US8987275B2.

Biological target: Tel-Alk (Homo sapiens)
Construct: TEL (ETV6); N-terminal fusion partner; human ETV6 would be P41212; the other entry of the earlier key: ETV6 (P41212, Transcription factor ETV6)
Experiment: IC50 of compounds against kinase target Tel-Alk (Table I)
Type: cell-based
observable: IC50 (µM)

CCN1CCN(Cc2ccc(NC(=O)c3ccc(C)c(-c4ccc5c(NC(=O)C6CC6)n[nH]c5c4)c3)cc2C(F)(F)F)CC1; 0.31

A: CCN1CCN(Cc2ccc(C(=O)Nc3cccc(-c4ccc5c(N)n[nH]c5c4)c3)cc2C(F)(F)F)CC1
B: CCN1CCN(Cc2ccc(NC(=O)c3cccc(Nc4ccc5c(NC(=O)C6CC6)n[nH]c5c4)c3)cc2C(F)(F)F)CC1
Q: Pick one, A or B : lowest reported IC50. Give the chosen item's label as your response.
A: A

1: CCN1CCN(Cc2ccc(NC(=O)c3cccc(-c4ccc5c(NC(=O)c6ccccc6)n[nH]c5c4)c3)cc2C(F)(F)F)CC1
2: O=C(Nc1cccc(-c2ccc3c(NC(=O)C4CC4)n[nH]c3c2)c1)C1CC1
Q: Pick one, 1 or 2 : lowest reported IC50. Give the chosen item's label as your response.
A: 2

a: CCN1CCN(Cc2ccc(NC(=O)c3cccc(-c4ccc5c(NC(=O)C6CC6)n[nH]c5c4)c3)cc2C(F)(F)F)CC1
b: Cc1cn(-c2cc(NC(=O)c3cccc(-c4ccc5c(NC(=O)C6CC6)n[nH]c5c4)c3)cc(C(F)(F)F)c2)cn1
c: CCN1CCN(Cc2ccc(NC(=O)Nc3cccc(-c4ccc5c(NC(=O)C6CC6)n[nH]c5c4)c3)cc2C(F)(F)F)CC1
d: Cc1ccc(C(=O)Nc2cccc(C(F)(F)F)c2)cc1-c1ccc2c(NC(=O)C3CC3)n[nH]c2c1
Q: Sequence the entries by IC50, beginning with the highest number. Please list the labels in the order you were asked to rank them.
A: b, d, c, a

---

Target: Tel-Alk (Homo sapiens, UniProt Q9UM73)
Construct: TEL (ETV6); N-terminal fusion partner; human ETV6 would be P41212; the other entry of the earlier key: ETV6 (P41212, Transcription factor ETV6)
Experiment: IC50 of compounds against kinase target Tel-Alk (Table I)
pIC50: −log10 of the molar value.
observable: pIC50

A: COc1cc(Nc2ccc3c(NC(=O)C4CC4)n[nH]c3c2)cc(C(=O)Nc2ccc(CN3CCN(C)CC3)c(C(F)(F)F)c2)c1
B: CCN1CCN(Cc2ccc(NC(=O)c3ccc(C)c(-c4ccc5c(NC(=O)C6CC6)n[nH]c5c4)c3)cc2)CC1
Q: Pick one, A or B : lowest reported pIC50. Give the chosen item's label as your response.
A: A

---

Target: EML4-Alk (Homo sapiens)
Construct: EML4 (N-terminal fusion partner); human EML4 would be Q9HC35; the other entry of the earlier key: EML4 (Q9HC35, Echinoderm microtubule-associated protein-like 4)
Sequence (Q9UM73 1058-1620 limits assumed): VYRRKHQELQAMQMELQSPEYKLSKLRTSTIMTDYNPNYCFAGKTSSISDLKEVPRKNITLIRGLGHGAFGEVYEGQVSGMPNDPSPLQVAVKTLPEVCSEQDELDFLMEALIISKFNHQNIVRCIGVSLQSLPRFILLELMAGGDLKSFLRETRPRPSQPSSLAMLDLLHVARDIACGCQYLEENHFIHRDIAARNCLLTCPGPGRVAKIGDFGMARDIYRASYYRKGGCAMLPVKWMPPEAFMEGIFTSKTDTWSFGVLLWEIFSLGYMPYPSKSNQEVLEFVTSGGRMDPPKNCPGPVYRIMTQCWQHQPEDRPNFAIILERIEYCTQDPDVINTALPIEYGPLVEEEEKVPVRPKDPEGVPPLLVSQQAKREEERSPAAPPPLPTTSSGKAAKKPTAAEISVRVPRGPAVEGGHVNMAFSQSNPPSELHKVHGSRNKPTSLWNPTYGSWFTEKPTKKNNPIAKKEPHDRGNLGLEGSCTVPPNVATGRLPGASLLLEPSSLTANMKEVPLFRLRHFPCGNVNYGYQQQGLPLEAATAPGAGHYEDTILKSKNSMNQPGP
Assay: IC50 of compounds against kinase target EML4-Alk (Table I)
Method: All compounds are initially dissolved in DMSO to make 10 mM stock solutions, and then are serially diluted to obtain final concentrations for in vitro experiments. All cell lines are cultured with 5% CO2 at 37° C. in RPMI (Mediatech, Inc., Herndon, Va.) with 10% fetal calf serum (FCS) and supplemented with 1% L-glutamine. Parental Ba/F3 cells are similarly cultured with 15% WEHI-conditioned medium as a source of IL-3. Transfected cell lines are cultured in media supplemented with 1 mg/ml G418.
observable: IC50 (µM)

CCN1CCN(Cc2ccc(NC(=O)c3cccc(-c4ccc5c(NC(=O)C6CC6)n[nH]c5c4)c3)cc2C(F)(F)F)CC1 [Compound 19]; 0.06

I: CCOC(=O)c1cccc(-c2ccc3c(NC(=O)c4ccc(N5CCN(C)CC5)cc4)n[nH]c3c2)c1 [Compound 27]
II: CCN1CCN(Cc2ccc(NC(=O)Nc3cccc(-c4ccc5c(NC(=O)C6CC6)n[nH]c5c4)c3)cc2C(F)(F)F)CC1 [Compound 21]
Q: Pick one, I or II : lowest reported IC50. Give the chosen item's label as your response.
A: II
(II: 0.36 µM, I: 4.22 µM)
